From: patent US20150118229A1

assay-overview: in vivo
condition-details: dog, po, 1 mg/kg, AUC0-∞
property: AUC(0-inf)

# input compound: CC[C@@H]1CN(C(=O)NCC(F)(F)F)C[C@@H]1c1cnc2cnc3[nH]ccc3n12 ; wanted: its AUC(0-inf)
1240 ng·h/mL

====

assay-overview: Pharmacokinetics in monkey
Format: in vivo
condition-details: plasma, IV 1.0 mg/kg single dose, read-out: Vss
property: Vd

# input compound: CC[C@@H]1CN(C(=O)NCC(F)(F)F)C[C@@H]1c1cnc2cnc3[nH]ccc3n12 ; wanted: its Vd
1.6 L/kg

====

Test system: IL-6 signaling
assay-overview: Whole blood assay IL-6 pSTAT3 CD14+
Type: cell-based
condition-details: whole blood; read-out: IC50 IL-6 pSTAT3 CD14+
property: IC50 (nM)
Output spec: scalar in nM, unitless text.

# input compound: CC[C@@H]1CN(C(=O)NCC(F)(F)F)C[C@@H]1c1cnc2cnc3[nH]ccc3n12 [Compound 1] ; wanted: its IC50
17
